- assay-target: Inhibitor of nuclear factor kappa-B kinase subunit epsilon (Homo sapiens) (UniProt Q14164)
- Sequence (Q14164 whole entry): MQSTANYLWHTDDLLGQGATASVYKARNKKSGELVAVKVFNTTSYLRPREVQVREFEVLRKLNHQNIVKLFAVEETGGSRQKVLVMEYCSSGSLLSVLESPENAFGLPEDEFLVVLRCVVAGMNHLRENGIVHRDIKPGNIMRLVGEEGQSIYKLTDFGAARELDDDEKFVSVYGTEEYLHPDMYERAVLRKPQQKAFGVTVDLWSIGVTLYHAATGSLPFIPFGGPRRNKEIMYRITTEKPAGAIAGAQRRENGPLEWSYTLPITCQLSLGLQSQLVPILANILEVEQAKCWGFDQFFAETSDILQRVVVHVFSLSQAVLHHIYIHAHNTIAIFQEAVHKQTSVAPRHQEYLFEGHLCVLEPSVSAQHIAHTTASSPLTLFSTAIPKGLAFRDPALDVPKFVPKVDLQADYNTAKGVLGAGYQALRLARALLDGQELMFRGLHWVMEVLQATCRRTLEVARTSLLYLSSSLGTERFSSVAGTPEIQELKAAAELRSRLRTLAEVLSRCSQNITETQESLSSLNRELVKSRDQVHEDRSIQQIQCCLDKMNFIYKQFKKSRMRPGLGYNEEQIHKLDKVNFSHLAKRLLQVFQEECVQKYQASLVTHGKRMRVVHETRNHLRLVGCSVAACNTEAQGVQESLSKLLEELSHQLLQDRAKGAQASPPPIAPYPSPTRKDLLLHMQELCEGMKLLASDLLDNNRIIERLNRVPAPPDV
- experimental-setup: at 1 µM
quantity-kind: inhibition (%)
Give just the number in %; leave the unit off.

Briefly, inhibition measured for CN1CCC(n2cnc(-c3ccc(F)cc3)c2-c2ccnc(NCCO)n2)CC1 : -3

Briefly, inhibition measured for Fc1ccc(-c2ncn(C3CCNCC3)c2-c2ccnc(Oc3ccc(Oc4ccccc4)cc3)n2)cc1 : 1

Briefly, inhibition measured for Cc1cc(O)cc(C)c1/C=C/c1cncc(C(N)=O)c1 : -2

Briefly, inhibition measured for CN1CCC(n2cnc(-c3ccc(F)cc3)c2-c2ccnc(N)n2)CC1 : 4

Briefly, inhibition measured for COc1cc2ncnc(Nc3ccc4c(cnn4Cc4ccccc4)c3)c2cc1OC : 2

Briefly, inhibition measured for NS(=O)(=O)c1ccc(N/N=C2\C(=O)Nc3ccc(C(=O)NCc4ccncc4)cc32)cc1 : 65

Briefly, inhibition measured for CN(c1ccc(NC(=O)Nc2c(Cl)cccc2Cl)cc1)c1ccnc(Nc2cccc(CS(C)(=O)=O)c2)n1 : 13

Briefly, inhibition measured for CCn1c(-c2nonc2N)nc2c(C#CC(C)(C)O)ncc(OC[C@@H]3CCCN3)c21 : 97

Briefly, inhibition measured for NS(=O)(=O)c1ccc(NC=C2C(=O)Nc3ccc4ncsc4c32)cc1 : 85

Briefly, inhibition measured for COc1ccccc1Nc1ncc(-c2ccccc2)o1 : 5

Briefly, inhibition measured for CC(C)COC(=O)c1ccc2c(c1)/C(=C/Nc1ccc(S(N)(=O)=O)cc1)C(=O)N2 : 94

Briefly, inhibition measured for CCn1c(-c2nonc2N)nc2ccc(F)cc21 : -1

Briefly, inhibition measured for Cc1nnc(-c2cccc(-c3ccc(C(=O)NCC4CC4)cc3)c2)o1 : -1

Briefly, inhibition measured for Cc1nn(C)c2cc(N(C)c3ccnc(Nc4cccc(S(N)(=O)=O)c4)n3)ccc12 : 2

Briefly, inhibition measured for CC(=O)NCc1cccc(C#Cc2cncnc2Nc2ccc(OCc3cccc(F)c3)c(Cl)c2)c1 : -4

Briefly, inhibition measured for CC(C)=Cc1cccc2c1/C(=N/Nc1ccc(S(N)(=O)=O)cc1)C(=O)N2 : 33

Briefly, inhibition measured for FC(F)(F)c1ccc(-c2nn3ncccc3c2-c2ccnc(Nc3ccc4c(c3)OCCO4)n2)cc1 : -2

Briefly, inhibition measured for N#Cc1c(NC(=O)CN2CCOCC2)sc2c1CCCC2 : -2

Briefly, inhibition measured for Cc1ccc(NC(=O)c2ccoc2)cc1-c1ccc(C(=O)NCC2CC2)cc1 : 1

Briefly, inhibition measured for O=C1Nc2ccccc2/C1=C/Nc1ccc(-n2cncn2)cc1 : 18

Briefly, inhibition measured for Nc1nonc1-c1nc2cnccc2n1C1CCCCC1 : 25

Briefly, inhibition measured for NC(=O)c1cc(-c2ccncc2)cc(-c2ccccc2)c1N : 14

Briefly, inhibition measured for O=C(Nc1n[nH]c2cc(-c3ccccc3)ccc12)C1CC1 : -1
